Just for reference, patent US4200628A is where these values come from.

Tested on: Pseudomonas aeriginosa TB-151
Assay: MIC, antimicrobial activity
Assay type: cell-based
Conditions: Pseudomonas aeriginosa TB-151, tobramycin resistant strain
Recorded Endpoint: Minimum Inhibitory Concentration (MIC) (µg/mL)

INSERT INTO results (molecule, measured_result) VALUES
  ('NC[C@H]1O[C@H](O[C@H]2[C@H](O)[C@@H](O[C@H]3O[C@H](CO)[C@@H](O)[C@H](N)[C@H]3O)[C@H](NC(=O)C(O)C3CCCN3)C[C@@H]2N)[C@H](N)C[C@@H]1O (stereo partly drawn) [(7)]', 50.0),
  ('NC[C@H]1O[C@H](O[C@H]2[C@H](O)[C@@H](O[C@H]3O[C@H](CO)[C@@H](O)[C@H](N)[C@H]3O)[C@H](NC(=O)C(O)C3CNCCN3)C[C@@H]2N)[C@H](N)C[C@@H]1O (single isomer, unassigned) [(8)]', 6.2),
  ('NC[C@H]1O[C@H](O[C@H]2[C@H](O)[C@@H](O[C@H]3O[C@H](CO)[C@@H](O)[C@H](N)[C@H]3O)[C@H](NC(=O)C(O)C3CCCN3)C[C@@H]2N)[C@H](N)C[C@@H]1O (stereo partly drawn) [(5)]', 100.0);

----------
Tested on: Pseudomonas aeriginosa TB-151
Assay: MIC, antimicrobial activity
Assay type: cell-based
Conditions: Pseudomonas aeriginosa TB-151, tobramycin resistant strain
molecules and their reported Minimum Inhibitory Concentration (MIC)
Recorded Endpoint: Minimum Inhibitory Concentration (MIC)

INSERT INTO measurements (molecule, recorded_endpoint, measured_result) VALUES
  ('NC[C@H]1O[C@H](O[C@H]2[C@H](O)[C@@H](O[C@H]3O[C@H](CO)[C@@H](O)[C@H](N)[C@H]3O)[C@H](NC(=O)C(O)C3CCCN3)C[C@@H]2N)[C@H](N)C[C@@H]1O (some centres unmarked) [(6)]', 'Minimum Inhibitory Concentration (MIC)', '12.5 µg/mL'),
  ('NC[C@H]1O[C@H](O[C@H]2[C@H](O)[C@@H](O[C@H]3O[C@H](CO)[C@@H](O)[C@H](N)[C@H]3O)[C@H](NC(=O)C(O)C3CNCCN3)C[C@@H]2N)[C@H](N)C[C@@H]1O (single isomer, unassigned) [(9)]', 'Minimum Inhibitory Concentration (MIC)', '25.0 µg/mL');
